experiment: Compound was tested for lethal concentration in Brine shrimp lethality test (BST); assay type: organism-based; details: artemia, in vivo
experimental.endpoint: LC50 (µg/mL)

{"columns": ["compound", "endpoint.value"],
 "data": [
  ["CCCCCCCCCCC(O)C(O)CCC(O)C1CCC(C2CCC(CCCCCCCC3CC(CC(C)=O)C(=O)O3)O2)O1 (stereo in doubt)", 0.137]
]}
